# IC50 against ASK1 (Homo sapiens (Human)), merged from multiple literature sources

Take a look at these entries with their results.
# Smiles str, Assayed system, IC50
measured = [
    ("COCCOC(=O)N1CCc2cnc(C(=O)Nc3cccc(-c4nnnn4[C@H](C)CO)n3)cc2C1", "ASK1 (Homo sapiens (Human))", "1 to 10 nM"),
    ("CC(C)n1nnnc1-c1cccc(NC(=O)c2cc3sc(N4CCOCC4)nc3cn2)n1", "ASK1 (Homo sapiens (Human))", "> 1000 nM"),
    ("CCc1cc2c(s1)C(=O)N(c1cccc(-c3nncn3C3CC3)n1)C2", "ASK1 (Homo sapiens (Human))", "< 1000 nM"),
    ("COCCC(=O)N1CCc2ccc(C(=O)Nc3cccc(-c4nncn4C(C)C)n3)cc2C1", "ASK1 (Homo sapiens (Human))", "10 to 100 nM"),
    ("COc1cc2c(cc1C(=O)Nc1cccc(-c3nnnn3[C@H](C)CO)n1)CN(C(=O)c1ccccn1)CC2", "ASK1 (Homo sapiens (Human))", "< 1.25 nM"),
]

Lab entry: ASK1 (Homo sapiens (Human)) assay, compound "O=C(O)c1ccc2c(c1)C(=O)N(c1cccc(-c3nncn3C3CC3)n1)C2" , IC50 = < 200 nM

Recorded IC50 for "Cc1cc(F)c(C(=O)Nc2cccc3c2OCC2(CC2)n2nnnc2-3)cc1-n1cnc(C2CC2)c1" on ASK1 (Homo sapiens (Human)) was 4.2 nM

Item: "CC(C)n1nnnc1-c1cccc(NC(=O)c2cc3ccccc3cc2F)n1" | System: ASK1 (Homo sapiens (Human)) | IC50: > 1000 nM

Record "CC(C)n1cnnc1-c1cccc(NC(=O)c2cc3cc(-n4cnc(C5CC5)c4)ccc3cn2)n1" ; system ASK1 (Homo sapiens (Human)); IC50 = 1 to 10 nM

* * *

pIC50: −log10 of the molar value.
Multiple publications report pIC50 for ASK1 (Homo sapiens (Human), UniProt Q99683); what follows is a combined list.

GET /values?item= "O=C(Nc1cccc2c1OC[C@@H](CF)n1nnnc1-2)c1cc(-n2cnc(C3CC3)c2)ccn1" &system= ASK1 (Homo sapiens (Human), UniProt Q99683) returns pIC50: 8.24

Noted pIC50 for "O=C1c2cc(-c3cnccc3F)ccc2CN1c1cccc(-c2nncn2C2CC2)n1" , tested on ASK1 (Homo sapiens (Human), UniProt Q99683): > 6.70

pIC50 on ASK1 (Homo sapiens (Human), UniProt Q99683) for "CC(C)n1nnnc1-c1cccc(NC(=O)c2cc3sc(N(C)C)nc3cc2F)n1" is 7.00 to 8.00

For the molecule "CC(C)c1nnnn1-c1cccc(NC(=O)c2cc3c(cc2F)CCNC3)n1" , the measured pIC50 on ASK1 (Homo sapiens (Human), UniProt Q99683) was < 6.00

Bench note, ASK1 (Homo sapiens (Human), UniProt Q99683): entry "Cc1cc(F)c(C(=O)Nc2cccc3c2OC2(CC2)Cn2nnnc2-3)cc1-n1cnc(C2CC2)c1" , its pIC50 = 8.38

ASK1 (Homo sapiens (Human), UniProt Q99683) data for "C[C@H](CO)n1nnnc1-c1cccc(NC(=O)c2cc3c(cn2)CCN(C(=O)c2ccc(F)cc2)C3)n1" ; its pIC50: 8.00 to 9.00

// pIC50 (ASK1 (Homo sapiens (Human), UniProt Q99683)) for "CCN(C)C(=O)N1CCc2cc(F)c(C(=O)Nc3cccc(-c4nncn4C(C)C)n3)cc2C1" = 8.00 to 9.00
